Just for reference, patent US11053205B2 is where these values come from.

Test system: human red blood cells
Cond: human, 1 h, 200 μM, pH 7.2
Quantity Kind: Hemolysis at 200 μM (%)
Numbers only, in %.

| Smiles Text | Hemolysis at 200 μM [%] |
| --- | --- |
| Cc1cccc2nc3c(O)c(Br)cc(Br)c3nc12 | 6.7 |
| CCc1cccc2nc3c(O)c(Br)cc(Br)c3nc12 | 1.7 |

Let us move to another entry and its Hemolysis at 200 μM.
Data request: Look up Hemolysis at 200 μM for this compound: `COCCOCCOCCOCCOC(=O)Oc1c(Br)cc(Br)c2nc3ccccc3nc12`
Data returned: 2.4

---

Tested on: VRE 700221
Assay Summary: MIC, broth microdilution (CLSI)
Cond: 16 to 18 hours at 37° C.
Would you mind telling me the reported VRE 700221 MIC of each entry?
One number for each entry, in µM.

| Molecule | System Name | Measure Unit | VRE 700221 MIC |
| --- | --- | --- | --- |
| CCc1ccc2nc3c(O)ccc(Br)c3nc2c1 [Compound 67A] | VRE 700221 | µM | 12.5 |

Let us move to another entry and its VRE 700221 MIC.
Data request: Look up VRE 700221 MIC for this molecule: CS(=O)(=O)N1CCN(C(=O)Oc2c(Br)cc(Br)c3nc4ccccc4nc23)C1=O [Compound 31]
Data returned: 3.13

---

System: MRSE 35984 biofilms
Assay Summary: Calgary Biofilm Device (CBD) assay, MBC/MBEC
Cond: CBD, planktonic killing
Field: label. Allowed values: TRUE (MRSE 35984 MBC < 50 µM) or FALSE (MRSE 35984 MBC >= 50 µM).

These solved cases illustrate the format of a correct answer.
| Compound | System Name | Label |
| --- | --- | --- |
| CCN(CC)c1ccc2nc3c(O)c(Br)cc(Br)c3nc2c1Br [Compound 64A] | MRSE 35984 biofilms | TRUE |
| CC1=C(C)C(=O)C(COC(=O)OCOc2c(Br)cc(Br)c3nc4cc(Cl)ccc4nc23)=C(C)C1=O [Compound 87A] | MRSE 35984 biofilms | TRUE |
| CS(=O)(=O)N1CCN(C(=O)Oc2c(Br)cc(Br)c3nc4ccccc4nc23)C1=O [Compound 76A] | MRSE 35984 biofilms | TRUE |

Data request: Lab log: compare recorded MRSE 35984 MBC with 50 µM; is it strictly lower for O=C(O)CN(CCN(CC(=O)O)CC(=O)O)CC(=O)O [EDTA, ethylenediaminetetraacetic acid, reference compound] ?
Data returned: FALSE

Data request: Lab log: compare recorded MRSE 35984 MBC with 50 µM; is it strictly lower for Cc1cc2nc3c(O)c(Br)cc(Br)c3nc2c(C)c1C [Compound 59A] ?
Data returned: TRUE

Data request: Lab log: compare recorded MRSE 35984 MBC with 50 µM; is it strictly lower for COCCOCCOCCOCCOC(=O)Oc1c(Br)cc(Br)c2nc3cc(Cl)ccc3nc12 [Compound 77A] ?
Data returned: TRUE

---

Test system: human red blood cells
Cond: human, 1 h, 200 μM, pH 7.2
Would you mind telling me the reported Hemolysis at 200 μM of each entry?

| Compound | Quantity Kind | Reported Result |
| --- | --- | --- |
| Oc1c(Br)cc(Br)c2nc3c(Cl)cccc3nc12 | Hemolysis at 200 μM | ≤1% |
| Oc1c(Br)cc(Br)c2nc3ccc(Cl)cc3nc12 | Hemolysis at 200 μM | ≤1% |
| Oc1c(Br)cc(Br)c2nc3ccccc3nc12 | Hemolysis at 200 μM | ≤1% |
| CC(=O)NC[C@H]1CN(c2ccc(N3CCOCC3)c(F)c2)C(=O)O1 [linezolid, reference compound] | Hemolysis at 200 μM | ≤1% |

Let us move to another entry and its Hemolysis at 200 μM.
Data request: Look up Hemolysis at 200 μM for this compound: `Oc1c(Br)cc(Br)c2nc3c(Br)cccc3nc12`
Data returned: 5.1%
